Cited source: a collection of fitness landscapes (doi:10.1126/science.1257360)

Property: enrichment ratio; scope: individual variants
B1: PhoQ; a variant is named by its letters at X, in order, P23837 (parent)
chain: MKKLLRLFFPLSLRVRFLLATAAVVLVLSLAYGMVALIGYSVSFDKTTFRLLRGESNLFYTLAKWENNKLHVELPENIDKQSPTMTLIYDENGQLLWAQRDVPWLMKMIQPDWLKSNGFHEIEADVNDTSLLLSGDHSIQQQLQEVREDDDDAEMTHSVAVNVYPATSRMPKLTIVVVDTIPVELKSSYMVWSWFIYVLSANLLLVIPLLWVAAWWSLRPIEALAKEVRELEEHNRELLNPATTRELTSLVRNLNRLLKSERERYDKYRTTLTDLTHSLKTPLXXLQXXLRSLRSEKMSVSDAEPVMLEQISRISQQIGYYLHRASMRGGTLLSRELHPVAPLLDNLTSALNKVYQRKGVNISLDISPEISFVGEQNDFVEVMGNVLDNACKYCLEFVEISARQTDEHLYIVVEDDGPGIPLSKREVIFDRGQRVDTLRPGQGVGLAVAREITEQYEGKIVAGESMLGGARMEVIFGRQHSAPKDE

- Variants of: B1
- method-description: enrichment ratio after two sorts for PhoP signalling (ratio (wild type AVST 3.29)); higher = more functional
- settings: with PhoP (E. coli)
Over roughly 140,000 sequences, “enrichment ratio after two sorts for PhoP signalling” has its median near 0; the highest 2% begin near 11. The entries come from a sample that favours the highest values as a whole.

| mutation-list | enrichment ratio |
| --- | --- |
| NASS | ≤ 0.25 |
| MYGA | ≤ 0.25 |
| ASGS | 3.2 |
| IHCL | ≤ 0.25 |
| MAIR | ≤ 0.25 |
| WAWV | ≤ 0.25 |
| DGEM | ≤ 0.25 |
| SMMV | 17.9 |
| SMIE | ≤ 0.25 |
| QGMV | 23.6 |
| MSDL | ≤ 0.25 |
| NGIV | ≤ 0.25 |
| EAAS | ≤ 0.25 |
| QRMF | ≤ 0.25 |
| ASQN | ≤ 0.25 |
| AFWQ | ≤ 0.25 |
| QPWV | ≤ 0.25 |
| TATC | 7.1 |
| VEYL | ≤ 0.25 |
| KSAF | ≤ 0.25 |
| QNNM | ≤ 0.25 |
| TWQT | ≤ 0.25 |
| MMAV | 5.57 |
| QERY | ≤ 0.25 |
| CHLM | ≤ 0.25 |
| SMMH | 15.6 |
| ICMW | ≤ 0.25 |
| SMQH | 14.9 |
| QRSI | ≤ 0.25 |
| PMPR | ≤ 0.25 |
| WFDE | ≤ 0.25 |
| ASMN | 19.6 |
| GKQS | ≤ 0.25 |
| FHVI | ≤ 0.25 |
| YSHY | ≤ 0.25 |
| MSKE | ≤ 0.25 |
| SMQN | ≤ 0.25 |
| SMKH | ≤ 0.25 |
| SLCW | 0.501 |
| WTQR | ≤ 0.25 |
| TTSS | 15.9 |
| CNFF | ≤ 0.25 |
| FRNI | ≤ 0.25 |
| ASVG | 14.7 |
| FSSS | ≤ 0.25 |
| SMPV | ≤ 0.25 |
| KASS | 1.62 |
| GTMP | ≤ 0.25 |
| YDML | ≤ 0.25 |
| QGMS | ≤ 0.25 |
| SMCW | 19.6 |
| KYWW | ≤ 0.25 |
| PYWQ | ≤ 0.25 |
| SMTA | 11.8 |
| QGAL | 15.6 |
| SMGS | 1.09 |
| KSAV | ≤ 0.25 |
| SMMN | 19.5 |
| ISMW | ≤ 0.25 |
| ASMW | 5.78 |
| KSVG | ≤ 0.25 |
| NQNT | ≤ 0.25 |
| SMTH | 4.57 |
| NASI | ≤ 0.25 |
| DHVP | ≤ 0.25 |
| YEDC | ≤ 0.25 |
| SNCW | 10.3 |
| TASK | 0.795 |
| TGMV | 12.7 |
| SMGH | 1.91 |
| FFAL | ≤ 0.25 |
| YSRL | ≤ 0.25 |
| PCAQ | ≤ 0.25 |
| TATS | 19.8 |
| GCIS | 2.07 |
| SMPA | ≤ 0.25 |
| SMWI | ≤ 0.25 |
| WEAV | ≤ 0.25 |
| TSSS | 14 |
| SMNL | 2.56 |
| TSAV | 16.5 |
| GFVM | ≤ 0.25 |
| SMWH | ≤ 0.25 |
| YTSS | ≤ 0.25 |
| PANG | ≤ 0.25 |
| ASNL | 4.93 |
| IHFF | ≤ 0.25 |
| ICIV | ≤ 0.25 |
| QSWV | 22.9 |
| QQWV | 11.8 |
| KSSS | ≤ 0.25 |
